system name: murine PDXP/PGP hybrid (Mus musculus, UniProt P60487+Q8CHP8)
Construct: consisting of the PGP cap domain (amino acids 114–233) fused to the PDXP core domain; His6 (N, cleaved yes); made in house; host or cells: Escherichia coli BL21 (DE3), pETM11
Sequence (P60487 1-100, one chain of several): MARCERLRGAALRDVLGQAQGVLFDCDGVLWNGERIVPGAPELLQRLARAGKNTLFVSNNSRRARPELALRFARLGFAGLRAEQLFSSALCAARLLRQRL
Sequence (P60487 208-292, one chain of several): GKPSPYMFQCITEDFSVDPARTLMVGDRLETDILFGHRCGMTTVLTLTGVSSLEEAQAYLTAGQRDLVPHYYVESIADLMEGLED
experimental protocol: PG dephosphorylation by PDXP/PGP hybrid protein
Assay type: biochemical
settings: phosphatase PDXP/PGP; species M.m.; substrate PG
Here, each record is paired with measured pIC50 data.
Please express pIC50 as -log10 of the molar concentration.

INSERT INTO results (mol_smiles, system_name, quantity_kind, reported_measurement) VALUES
  ('COc1ccc(C(=O)Nc2ccc(Cc3ccc(NC(=O)c4ccc(OC)c(OC)c4)c(C(=O)O)c3)cc2C(=O)O)cc1OC', 'murine PDXP/PGP hybrid (Mus musculus, UniProt P60487+Q8CHP8)', 'pIC50', 5.59),
  ('O=C(Nc1ccccc1C(=O)O)c1ccc(Oc2ccc(C(=O)Nc3ccccc3C(=O)O)cc2)cc1', 'murine PDXP/PGP hybrid (Mus musculus, UniProt P60487+Q8CHP8)', 'pIC50', 4.86);

Pending molecule:
Give recorded pIC50 with murine PDXP/PGP hybrid (Mus musculus, UniProt P60487+Q8CHP8) for the following molecule: O=C(O)c1cc(Nc2ccccc2C(=O)O)nc(Nc2ccccc2C(=O)O)n1
6.01

* * *

system name: murine PGP (Mus musculus, UniProt Q8CHP8)
experimental protocol: IC50 determination, murine PGP, glycerol 3-phosphate (G3P) dephosphorylation (EnzChek)
quantity kind: pIC50
Please express pIC50 as -log10 of the molar concentration.

# pIC50 lookup, item O=C(Nc1ccccc1C(=O)O)c1ccc(Oc2ccc(C(=O)Nc3ccccc3C(=O)O)cc2)cc1
5.98

* * *

system name: murine PGP-WT (Mus musculus)
Construct: His6 (N, cleaved yes); made in house; host or cells: Escherichia coli BL21 (DE3), pETM11, co-expressed with groES-groEL-tig
Sequence (Q8CHP8 1-321): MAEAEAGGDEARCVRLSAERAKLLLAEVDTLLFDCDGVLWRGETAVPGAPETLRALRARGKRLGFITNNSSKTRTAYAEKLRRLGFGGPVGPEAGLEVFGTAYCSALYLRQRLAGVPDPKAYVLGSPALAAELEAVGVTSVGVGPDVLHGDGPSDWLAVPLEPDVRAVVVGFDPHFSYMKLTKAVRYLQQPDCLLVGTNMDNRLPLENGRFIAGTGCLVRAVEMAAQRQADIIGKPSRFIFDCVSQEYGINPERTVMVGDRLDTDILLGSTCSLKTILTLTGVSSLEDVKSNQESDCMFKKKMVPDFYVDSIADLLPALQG
experimental protocol: Isothermal titration calorimetry, PGP-WT
Format: binding
settings: ITC, murine PGP, 25 °C; mean ± S.E.M., n = 3
Here, each record is paired with measured Kd data.
Numbers only; they are read as nM.

INSERT INTO results (mol_smiles, result_units, reported_measurement) VALUES
  ('O=C(Nc1ccccc1C(=O)O)c1ccc(Oc2ccc(C(=O)Nc3ccccc3C(=O)O)cc2)cc1', 'nM', 780);

Pending molecule:
Give recorded Kd with murine PGP-WT (Mus musculus) for the following molecule: O=C(O)c1cc(Nc2ccccc2C(=O)O)nc(Nc2ccccc2C(=O)O)n1
430

* * *

system name: NANP/HDHD4 (Mus musculus, UniProt Q9CPT3)
Sequence (Q9CPT3 whole entry): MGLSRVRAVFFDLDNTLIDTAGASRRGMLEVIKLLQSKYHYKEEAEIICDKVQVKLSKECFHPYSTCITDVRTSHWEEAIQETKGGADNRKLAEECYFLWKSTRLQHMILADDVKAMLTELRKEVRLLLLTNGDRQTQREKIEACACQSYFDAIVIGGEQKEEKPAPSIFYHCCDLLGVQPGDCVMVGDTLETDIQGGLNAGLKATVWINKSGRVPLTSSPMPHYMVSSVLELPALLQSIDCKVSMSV
experimental protocol: In vitro phosphatase activity assay, NANP/HDHD4 (6-phosphogluconate)
settings: NANP activity on 6-phosphogluconate
pIC50: −log10 of the molar value.
quantity kind: pIC50

# pIC50 lookup, item COc1ccc(C(=O)Nc2ccc(Cc3ccc(NC(=O)c4ccc(OC)c(OC)c4)c(C(=O)O)c3)cc2C(=O)O)cc1OC
~6.00

From: paper PMC9652372
